# Target or test system: Serine/threonine-protein kinase 24 (Homo sapiens, UniProt Q9Y6E0)
# Sequence (Q9Y6E0 whole entry): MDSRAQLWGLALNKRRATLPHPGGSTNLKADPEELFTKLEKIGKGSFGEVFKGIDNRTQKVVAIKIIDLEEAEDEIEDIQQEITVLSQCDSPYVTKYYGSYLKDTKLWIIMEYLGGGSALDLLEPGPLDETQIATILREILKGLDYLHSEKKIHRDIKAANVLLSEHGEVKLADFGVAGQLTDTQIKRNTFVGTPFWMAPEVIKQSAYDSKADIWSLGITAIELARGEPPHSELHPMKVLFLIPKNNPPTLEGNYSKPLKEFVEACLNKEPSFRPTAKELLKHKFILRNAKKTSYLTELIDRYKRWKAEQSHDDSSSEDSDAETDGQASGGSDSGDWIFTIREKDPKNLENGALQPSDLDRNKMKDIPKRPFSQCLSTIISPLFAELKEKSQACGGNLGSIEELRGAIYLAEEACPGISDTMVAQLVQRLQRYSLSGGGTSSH
pIC50: −log10 of the molar value.
Assay metric: pIC50

INSERT INTO measurements (structure_notation, assay_metric, test_value) VALUES
  ('CN1C(=O)c2sccc2N(C)c2nc(Nc3ccc(S(N)(=O)=O)cc3)ncc21', 'pIC50', 7.35);

----------
# Target or test system: Serine/threonine-protein kinase 3 (Homo sapiens, UniProt Q13188)
# Sequence (Q13188 whole entry): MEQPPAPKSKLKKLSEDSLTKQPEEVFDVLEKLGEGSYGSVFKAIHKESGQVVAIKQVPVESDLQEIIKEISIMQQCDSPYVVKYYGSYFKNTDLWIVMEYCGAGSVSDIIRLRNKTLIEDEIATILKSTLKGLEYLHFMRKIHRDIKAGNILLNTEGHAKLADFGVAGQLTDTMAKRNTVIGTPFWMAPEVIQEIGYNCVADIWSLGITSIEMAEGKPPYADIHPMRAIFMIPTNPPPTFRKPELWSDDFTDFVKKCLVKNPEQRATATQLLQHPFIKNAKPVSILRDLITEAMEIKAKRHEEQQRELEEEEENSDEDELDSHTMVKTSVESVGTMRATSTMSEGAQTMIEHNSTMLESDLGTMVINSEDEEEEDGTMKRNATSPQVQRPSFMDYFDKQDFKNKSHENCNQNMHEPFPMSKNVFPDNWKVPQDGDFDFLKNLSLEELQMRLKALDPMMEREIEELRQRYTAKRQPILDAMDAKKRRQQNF
# Protocol notes: Inhibition of recombinant His-tagged full-length MST2 (unknown origin) expressing in Escherichia coli assessed as MOB1a phosphorylation level incubated for 30 min in the presence of 100 uM ATP by immunoblot analysis
pIC50: −log10 of the molar value.
Assay metric: pIC50

INSERT INTO results (structure_notation, test_value) VALUES
  ('CN1C(=O)c2sccc2N(C)c2nc(Nc3ccc(S(N)(=O)=O)cc3)ncc21', 6.55);

----------
# Target or test system: Serine/threonine-protein kinase 3 (Homo sapiens)
# Protocol notes: Inhibition of recombinant His-tagged full-length MST2 (unknown origin) expressing in Escherichia coli assessed as MOB1a phosphorylation level incubated for 30 min in the presence of 30 uM ATP by immunoblot analysis
pIC50: −log10 of the molar value.
Assay metric: pIC50

INSERT INTO assay_data (structure_notation, test_value) VALUES
  ('CN1C(=O)c2sccc2N(C)c2nc(Nc3ccc(S(N)(=O)=O)cc3)ncc21', 6.75);

----------
# Protocol notes: AUC (0 to t) in male Sprague-Dawley rat at 5 mg/kg, iv measured for 24 hrs by LC-MS/MS analysis
# Format: ADME, organism-based
# Conditions used: in vivo
Assay metric: AUC(0-t) at 24 h

INSERT INTO assay_data (structure_notation, test_value) VALUES
  ('CN1C(=O)c2sccc2N(C)c2nc(Nc3ccc(S(N)(=O)=O)cc3)ncc21', '1260 ng·h/mL');

----------
# Target or test system: Serine/threonine-protein kinase 4 (Homo sapiens, UniProt Q13043)
# Sequence (Q13043 whole entry): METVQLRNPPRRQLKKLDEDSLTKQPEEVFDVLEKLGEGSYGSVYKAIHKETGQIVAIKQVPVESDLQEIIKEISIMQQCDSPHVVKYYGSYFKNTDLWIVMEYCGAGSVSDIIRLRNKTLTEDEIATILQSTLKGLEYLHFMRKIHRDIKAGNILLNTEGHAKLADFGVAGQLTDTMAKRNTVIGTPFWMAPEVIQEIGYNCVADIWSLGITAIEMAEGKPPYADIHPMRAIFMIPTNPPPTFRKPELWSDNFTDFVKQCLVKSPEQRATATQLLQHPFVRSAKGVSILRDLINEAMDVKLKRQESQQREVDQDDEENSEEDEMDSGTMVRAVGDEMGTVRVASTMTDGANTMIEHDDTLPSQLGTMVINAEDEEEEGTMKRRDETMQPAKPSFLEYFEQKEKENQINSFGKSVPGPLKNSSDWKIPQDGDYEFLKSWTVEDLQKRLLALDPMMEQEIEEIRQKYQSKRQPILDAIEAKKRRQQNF
pKd: −log10 of the molar value.
Assay metric: pKd

INSERT INTO measurements (structure_notation, target_or_test_system, test_value) VALUES
  ('CN1C(=O)c2sccc2N(C)c2nc(Nc3ccc(S(N)(=O)=O)cc3)ncc21', 'Serine/threonine-protein kinase 4 (Homo sapiens, UniProt Q13043)', 7.77);

----------
# Protocol notes: Inhibition of phosphorylated ABL1 T315I mutant (unknown origin) in presence of ATP by enzymatic assay
# Set-up: species or system Homo sapiens
pIC50: −log10 of the molar value.
Assay metric: pIC50

INSERT INTO measurements (structure_notation, assay_metric, test_value) VALUES
  ('CN1C(=O)c2sccc2N(C)c2nc(Nc3ccc(S(N)(=O)=O)cc3)ncc21', 'pIC50', 7.78);

----------
# Target or test system: Phosphatidylinositol 5-phosphate 4-kinase type-2 gamma (Homo sapiens)
# Sequence (Q8TBX8 whole entry): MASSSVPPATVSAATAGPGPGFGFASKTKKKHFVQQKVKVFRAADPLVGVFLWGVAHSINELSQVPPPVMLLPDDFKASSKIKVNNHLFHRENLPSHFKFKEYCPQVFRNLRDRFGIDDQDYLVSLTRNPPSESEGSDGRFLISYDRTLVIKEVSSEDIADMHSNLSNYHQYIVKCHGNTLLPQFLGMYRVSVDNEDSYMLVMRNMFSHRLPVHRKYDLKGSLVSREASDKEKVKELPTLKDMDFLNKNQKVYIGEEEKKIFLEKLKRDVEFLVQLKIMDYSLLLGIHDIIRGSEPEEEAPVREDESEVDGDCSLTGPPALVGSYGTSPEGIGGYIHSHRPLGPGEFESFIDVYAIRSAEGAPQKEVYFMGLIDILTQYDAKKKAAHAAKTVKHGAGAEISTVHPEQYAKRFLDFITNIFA
# Protocol notes: Binding affinity to PIP5K2C (unknown origin) assessed as dissociation constant
Assay metric: Kd (nM)

INSERT INTO results (structure_notation, target_or_test_system, unit_text, test_value) VALUES
  ('CN1C(=O)c2sccc2N(C)c2nc(Nc3ccc(S(N)(=O)=O)cc3)ncc21', 'Phosphatidylinositol 5-phosphate 4-kinase type-2 gamma (Homo sapiens)', 'nM', 34);

----------
# Protocol notes: MRT (0 to infinity) in male Sprague-Dawley rat at 10 mg/kg, po measured for 24 hrs by LC-MS/MS analysis
# Format: ADME, organism-based
# Conditions used: in vivo
Assay metric: MRT inf (h)

INSERT INTO measurements (structure_notation, unit_text, test_value) VALUES
  ('CN1C(=O)c2sccc2N(C)c2nc(Nc3ccc(S(N)(=O)=O)cc3)ncc21', 'h', 7.34);

----------
# Target or test system: Tyrosine-protein kinase ABL1 (Homo sapiens, UniProt P00519, M351T)
# Protocol notes: Binding affinity to phosphorylated ABL1 M351T mutant (unknown origin) assessed as dissociation constant
Assay metric: Kd (µM)

INSERT INTO measurements (structure_notation, unit_text, test_value) VALUES
  ('CN1C(=O)c2sccc2N(C)c2nc(Nc3ccc(S(N)(=O)=O)cc3)ncc21', 'µM', 0.042);

----------
# Protocol notes: Clearance in male Sprague-Dawley rat at 5 mg/kg, iv measured for 24 hrs by LC-MS/MS analysis
# Format: ADME, organism-based
# Conditions used: in vivo
Assay metric: clearance (mL/min/kg)

INSERT INTO measurements (structure_notation, unit_text, test_value) VALUES
  ('CN1C(=O)c2sccc2N(C)c2nc(Nc3ccc(S(N)(=O)=O)cc3)ncc21', 'mL/min/kg', 65.8);

----------
# Target or test system: Tyrosine-protein kinase ABL1 (Homo sapiens, UniProt P00519, Q252H)
# Protocol notes: Binding affinity to phosphorylated ABL1 Q252H mutant (unknown origin) assessed as dissociation constant
pKd: −log10 of the molar value.
Assay metric: pKd

INSERT INTO measurements (structure_notation, target_or_test_system, test_value) VALUES
  ('CN1C(=O)c2sccc2N(C)c2nc(Nc3ccc(S(N)(=O)=O)cc3)ncc21', 'Tyrosine-protein kinase ABL1 (Homo sapiens, UniProt P00519, Q252H)', 7.62);

----------
# Target or test system: Serine/threonine-protein kinase 4 (Homo sapiens)
Assay metric: IC50 (nM)

INSERT INTO results (structure_notation, assay_metric, test_value) VALUES
  ('CN1C(=O)c2sccc2N(C)c2nc(Nc3ccc(S(N)(=O)=O)cc3)ncc21', 'IC50', 70.7);

----------
# Protocol notes: MRT (0 to infinity) in male Sprague-Dawley rat at 5 mg/kg, iv measured for 24 hrs by LC-MS/MS analysis
# Assay type: ADME, organism-based
# Conditions used: in vivo
Assay metric: MRT inf (h)

INSERT INTO results (structure_notation, unit_text, test_value) VALUES
  ('CN1C(=O)c2sccc2N(C)c2nc(Nc3ccc(S(N)(=O)=O)cc3)ncc21', 'h', 1.36);

----------
# Target or test system: Serine/threonine-protein kinase 4 (Homo sapiens, UniProt Q13043)
# Protocol notes: Inhibition of recombinant His-tagged full-length MST1 (unknown origin) expressing in Escherichia coli assessed as MOB1a phosphorylation level incubated for 30 min in the presence of 10 uM ATP by immunoblot analysis
pIC50: −log10 of the molar value.
Assay metric: pIC50

INSERT INTO measurements (structure_notation, assay_metric, test_value) VALUES
  ('CN1C(=O)c2sccc2N(C)c2nc(Nc3ccc(S(N)(=O)=O)cc3)ncc21', 'pIC50', 6.79);

----------
# Target or test system: UniProtKB O14965
# Sequence (O14965 whole entry): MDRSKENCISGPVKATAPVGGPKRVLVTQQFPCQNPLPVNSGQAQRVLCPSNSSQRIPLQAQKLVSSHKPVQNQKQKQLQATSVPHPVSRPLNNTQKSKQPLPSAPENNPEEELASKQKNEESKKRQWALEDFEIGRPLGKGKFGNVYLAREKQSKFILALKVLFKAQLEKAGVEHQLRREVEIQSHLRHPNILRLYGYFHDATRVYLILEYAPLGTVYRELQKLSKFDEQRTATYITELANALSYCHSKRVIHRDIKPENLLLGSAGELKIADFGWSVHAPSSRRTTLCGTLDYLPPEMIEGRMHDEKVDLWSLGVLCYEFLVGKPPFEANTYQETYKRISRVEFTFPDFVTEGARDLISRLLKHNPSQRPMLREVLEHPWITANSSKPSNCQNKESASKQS
# Protocol notes: Inhibition of AURKA (unknown origin) in presence of ATP by enzymatic assay
Assay metric: IC50 (nM)

INSERT INTO assay_data (structure_notation, target_or_test_system, assay_metric, test_value) VALUES
  ('CN1C(=O)c2sccc2N(C)c2nc(Nc3ccc(S(N)(=O)=O)cc3)ncc21', 'UniProtKB O14965', 'IC50', 19.4);

----------
# Target or test system: Serine/threonine-protein kinase 3 (Homo sapiens, UniProt Q13188)
# Protocol notes: Inhibition of MST2 (unknown origin) in presence of ATP by enzymatic assay
pIC50: −log10 of the molar value.
Assay metric: pIC50

INSERT INTO results (structure_notation, test_value) VALUES
  ('CN1C(=O)c2sccc2N(C)c2nc(Nc3ccc(S(N)(=O)=O)cc3)ncc21', 7.74);

----------
# Target or test system: Serine/threonine-protein kinase TAO1 (Homo sapiens, UniProt Q7L7X3)
# Sequence (Q7L7X3 whole entry): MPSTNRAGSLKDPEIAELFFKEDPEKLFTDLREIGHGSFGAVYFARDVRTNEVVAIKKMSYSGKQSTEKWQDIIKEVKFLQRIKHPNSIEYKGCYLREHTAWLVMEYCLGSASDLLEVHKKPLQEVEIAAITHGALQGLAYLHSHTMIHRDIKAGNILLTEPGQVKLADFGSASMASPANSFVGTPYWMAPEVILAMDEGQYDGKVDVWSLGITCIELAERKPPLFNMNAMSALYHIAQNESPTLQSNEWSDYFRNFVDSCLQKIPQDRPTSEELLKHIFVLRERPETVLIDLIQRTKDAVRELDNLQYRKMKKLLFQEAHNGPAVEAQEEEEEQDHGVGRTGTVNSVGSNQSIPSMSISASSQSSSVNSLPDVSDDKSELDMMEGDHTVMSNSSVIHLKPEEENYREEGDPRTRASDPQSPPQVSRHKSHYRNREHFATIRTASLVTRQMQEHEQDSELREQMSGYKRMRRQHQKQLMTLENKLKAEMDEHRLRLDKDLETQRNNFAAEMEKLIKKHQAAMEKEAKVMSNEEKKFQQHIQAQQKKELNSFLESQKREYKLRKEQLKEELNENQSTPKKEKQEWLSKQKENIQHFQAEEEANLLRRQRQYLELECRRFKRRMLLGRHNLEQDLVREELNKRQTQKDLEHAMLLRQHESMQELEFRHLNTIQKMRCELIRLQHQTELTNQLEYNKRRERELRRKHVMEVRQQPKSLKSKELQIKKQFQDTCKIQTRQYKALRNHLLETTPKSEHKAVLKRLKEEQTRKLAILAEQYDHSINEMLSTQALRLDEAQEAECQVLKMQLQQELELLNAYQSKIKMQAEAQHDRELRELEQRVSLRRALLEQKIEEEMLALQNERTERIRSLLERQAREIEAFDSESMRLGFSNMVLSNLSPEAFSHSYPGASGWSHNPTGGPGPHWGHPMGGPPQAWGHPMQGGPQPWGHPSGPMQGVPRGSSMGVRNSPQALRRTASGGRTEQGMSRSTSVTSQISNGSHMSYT
pIC50: −log10 of the molar value.
Assay metric: pIC50

INSERT INTO assay_data (structure_notation, test_value) VALUES
  ('CN1C(=O)c2sccc2N(C)c2nc(Nc3ccc(S(N)(=O)=O)cc3)ncc21', 6.78);

----------
# Protocol notes: Half life in male Sprague-Dawley rat at 5 mg/kg, iv measured for 24 hrs by LC-MS/MS analysis
# Format: ADME, organism-based
# Conditions used: in vivo
Assay metric: half-life (h)

INSERT INTO assay_data (structure_notation, test_value) VALUES
  ('CN1C(=O)c2sccc2N(C)c2nc(Nc3ccc(S(N)(=O)=O)cc3)ncc21', 1.24);
